The reported numbers originate from patent US8691875B2.

# TEST_DETAILS: Bioavailability / pharmacokinetics study, single IV and PO administration
# Format: in vivo, Sprague-Dawley rats
# CONDITIONS: Sprague-Dawley, rat, plasma, iv, 1 mg/kg, IV 1 mg/kg, Mean
ATTRIBUTE_MEASURED: Cmax (ng/mL)
Dear colleague, please return just the value in ng/mL, with no unit written.

Would you mind telling me what Cmax value was observed for CC(=O)Nc1ccc(C(=O)Nc2ccccc2N)cc1 [Form A] ?
757

---

# TEST_DETAILS: Bioavailability / pharmacokinetics study, single IV and PO administration
# Format: in vivo, Sprague-Dawley rats
# CONDITIONS: Sprague-Dawley, rat, plasma, iv, 1 mg/kg, IV 1 mg/kg, Animal No. 2; read-out: Vz
# Procedure: A study was performed to determine the pharmacokinetics parameters and bioavailability of Tacedinaline Form A in Sprague-Dawley Rats, following a single intravenous injection (IV) and oral administration (PO). Formulation: IV formulation: The test article was dissolved in 10% DMSO/45% PEG400/45% Saline to yield a final concentration of 0.5 mg/ml for intravenous injection. […]
ATTRIBUTE_MEASURED: Vd (L/kg)
Dear colleague, please return just the value in L/kg, with no unit written.

Entry under review: CC(=O)Nc1ccc(C(=O)Nc2ccccc2N)cc1 [Form A] . Reported Vd?
1.35
